Data origin: patent US20210393810A1

- ASSAY NOTES: Biodistribution experiment in normal mice
- Format: in vivo, mice (ICR, male)
- REPORTED CONDITIONS: brain, 30 min after tail vein injection, normal ICR mice
Here the recorded biodistribution, brain is given for each entry.
ASSAY METRIC: biodistribution, brain (% ID/g)

{"MOLECULE": "CN(C)c1ccc(/C=N/N=C/c2ccc(OCC[18F])cc2)cc1 [[18F]87]", "ASSAY METRIC": "biodistribution, brain", "VALUE OBSERVED": 6.69}
{"MOLECULE": "CNc1ccc(/C=N/N=C/c2ccc(OCC[18F])cc2)cc1 [[18F]88]", "ASSAY METRIC": "biodistribution, brain", "VALUE OBSERVED": 4.81}
{"MOLECULE": "CNc1ccc(/C=N/N=C/c2ccc(OCCOCC[18F])cc2)cc1 [[18F]90]", "ASSAY METRIC": "biodistribution, brain", "VALUE OBSERVED": 4.92}
{"MOLECULE": "CNc1ccc(/C=N/N=C/c2ccc(OCCOCCOCC[18F])cc2)cc1 [[18F]92]", "ASSAY METRIC": "biodistribution, brain", "VALUE OBSERVED": 1.88}
{"MOLECULE": "CN(C)c1ccc(/C=N/N=C/c2ccc(OCCOCCOCC[18F])cc2)cc1 [[18F]91]", "ASSAY METRIC": "biodistribution, brain", "VALUE OBSERVED": 2.93}
{"MOLECULE": "CN(C)c1ccc(/C=N/N=C/c2ccc(OCCOCC[18F])cc2)cc1 [[18F]89]", "ASSAY METRIC": "biodistribution, brain", "VALUE OBSERVED": 6.06}

====

- ASSAY NOTES: Biodistribution experiment in normal mice
- Assay type: in vivo, mice (ICR, male)
- REPORTED CONDITIONS: blood, 60 min after tail vein injection, normal ICR mice
- Description: Pharmacokinetic properties in mice, especially the initial brain uptake and brain clearance, were studied through distribution experiments in vivo. […]
Below, each entry is listed with its recorded biodistribution, blood.

{"MOLECULE": "CNc1ccc(/C=N/N=C/c2ccc(OCCOCC[18F])cc2)cc1 [[18F]90]", "biodistribution, blood / % ID/g": 5.44}
{"MOLECULE": "CN(C)c1ccc(/C=N/N=C/c2ccc(OCCOCCOCC[18F])nc2)cc1 [[18F]93]", "biodistribution, blood / % ID/g": 2.46}
{"MOLECULE": "CN(C)c1ccc(/C=N/N=C/c2ccc(OCC[18F])cc2)cc1 [[18F]87]", "biodistribution, blood / % ID/g": 2.73}
{"MOLECULE": "CNc1ccc(/C=N/N=C/c2ccc(OCC[18F])cc2)cc1 [[18F]88]", "biodistribution, blood / % ID/g": 2.90}
